# System: BDF1 mice, B16 melanoma ip, median survival T/C
# experiment: NCI In Vivo Anticancer Drug Screen. Data for tumor model B16 Melanoma (intraperitoneal) in B6D2F1 (BDF1) mice
# experimental-conditions: endpoint: median survival time; dose: 1.5 mg/kg/injection; schedule: Q01DX009 (ip); vehicle: saline; higher = longer survival
Inconclusive results and toxic doses are left out.
# T/C per record follows
measured-parameter: T/C

# chemical-smiles, measured
data = [
    ("CN(Cc1cnc2nc(N)nc(N)c2n1)c1ccc(C(=O)N[C@@H](CCC(=O)O)C(=O)O)cc1", "92 % of control"),
    ("c1ccc([P+](c2ccccc2)(c2ccccc2)c2ccccc2)cc1", "113 % of control"),
    ("O=C1C(F)=C(N2CC2)C(=O)C(N2CCOCC2)=C1N1CC1", "108 % of control"),
    ("O=C(CCN1CC1)OCCOC(=O)CCN1CC1", "118 % of control"),
]

###

# System: BDF1 mice, B16 melanoma ip, median survival T/C
# experiment: NCI In Vivo Anticancer Drug Screen. Data for tumor model B16 Melanoma (intraperitoneal) in B6D2F1 (BDF1) mice
# experimental-conditions: endpoint: median survival time; dose: 6.25 mg/kg/injection; schedule: Q01DX009 (ip); vehicle: water; higher = longer survival
Inconclusive results and toxic doses are left out.
# T/C per record follows
measured-parameter: T/C

# molecule, measured
measured = [
    ("C[n+]1c(-c2cccc3ccccc23)c2cc(N)ccc2c2ccccc21", "124 % of control"),
    ("COc1cccc(CN2CCCNCC2)c1", "102 % of control"),
    ("Cc1c(O)c2c(c(O)c1Cc1ccc(CN)cc1)C(=O)c1ccccc1C2=O", "93 % of control"),
    ("COc1cccc2c1C(=O)c1c(O)c3c(c(O)c1C2=O)C[C@@](O)(/C(C)=N/NC(=O)c1ccc(S(N)(=O)=O)cc1)C[C@@H]3OC1CC(N)C(O)C(C)O1 (some centres undefined)", "258 % of control"),
]

###

# System: BDF1 mice, B16 melanoma ip, median survival T/C
# experiment: NCI In Vivo Anticancer Drug Screen. Data for tumor model B16 Melanoma (intraperitoneal) in B6D2F1 (BDF1) mice
# experimental-conditions: endpoint: median survival time; dose: 150.0 mg/kg/injection; schedule: Q01DX009 (ip); vehicle: Klucel (hydroxypropylcellulose) (HPC); higher = longer survival
Inconclusive results and toxic doses are left out.
# T/C per record follows
measured-parameter: T/C

# chemical-smiles, measured
measured = [
    ("COCC(=O)CC(C)=O", "113 % of control"),
    ("O=C(O)/C(=C\\c1ccc(Cl)cc1)c1ccc(Cl)cc1", "93 % of control"),
    ("Cc1cccc(NS(=O)(=O)c2ccc(Cl)cc2)c1C", "95 % of control"),
    ("Cc1ccc(NC(=O)c2ccc(Cl)cc2)c(C)c1", "91 % of control"),
    ("O=C(O)c1ccc2sc3ccccc3c(=O)c2c1", "96 % of control"),
    ("CCCCCCCCCCCC(=O)N(CCCC)CCCC", "97 % of control"),
]

###

# T/C per record follows
# System: BDF1 mice, B16 melanoma ip, median survival T/C
# experiment: NCI In Vivo Anticancer Drug Screen. Data for tumor model B16 Melanoma (intraperitoneal) in B6D2F1 (BDF1) mice
# experimental-conditions: endpoint: median survival time; dose: 10.0 mg/kg/injection; schedule: Q01DX009 (ip); vehicle: Klucel (hydroxypropylcellulose) (HPC); higher = longer survival
Inconclusive results and toxic doses are left out.
measured-parameter: T/C

# compound, measured
rows = [
    ("CC1CCC2(OC1)OC1CC3C4CCC5CC(O)CCC5(C)C4CCC3(C)C1C2C (stereo not given)", "99 % of control"),
    ("COc1cc2cc3cc4cc(OC)c(OC)cc4c(C)[n+]3cc2cc1OC (tested in a mixture with another compound)", "96 % of control"),
    ("C[C@H]1C/C=C/[C@H]2[C@@H]3O[C@]3(C)[C@@H](C)[C@H]3[C@H](Cc4ccccc4)NC(=O)[C@]32OC(=O)O/C=C/[C@@](C)(O)C1=O", "89 % of control"),
    ("C=C1C(=O)OCC2C(C(=O)O)=CC3C(C)C(C)=CC123 (stereo not given)", "96 % of control"),
    ("Cc1c2ccc3ccccc3c2c[n+]2ccccc12", "108 % of control"),
]
